Source of measurements: patent US9492554B2

- STUDY_TARGET: HIV-1 TAR RNA
- ASSAY_COMMENT: HIV-1 TAR RNA competition FRET binding assay (Tat peptide probe)
- MEASUREMENT_CONDITIONS: 100 nM TAR RNA, 100 nM Tat peptide, 25° C., 60 min; Table 17
Hi there, I'd appreciate the recorded IC50 for every entry that follows.
Report only the number, with the unit µM understood.

Req: Please supply the value of reported IC50 for the item CN1CCN(c2ccc3nc(-c4ccc(OCCn5cc(-c6ccc(-c7cn(C[C@H]8OC(OC9C(O)[C@H](N)CC(N)[C@H]9O[C@H]9OC(CN)[C@@H](O)C(O)C9N)C(O)C8O[C@H]8OC(CN)[C@@H](O)C(O)C8N)nn7)cc6)nn5)cc4)[nH]c3c2)CC1 (some centres unmarked) [DPA118]
Resp: 12.1

Req: Please supply the value of reported IC50 for the item CN1CCN(c2ccc3nc(-c4ccc(OCc5cn(CCCCCCn6cc(CCCCc7cn(C[C@H]8OC(OC9C(O)[C@H](N)CC(N)[C@H]9O[C@H]9OC(CN)[C@@H](O)C(O)C9N)C(O)C8O[C@H]8OC(CN)[C@@H](O)C(O)C8N)nn7)nn6)nn5)cc4)[nH]c3c2)CC1 (some centres unmarked) [DPA115]
Resp: 99.4

----------
- Tested on: cells
ENDPOINT_NAME: 5% Toxicity microM (µM)
Report only the number, with the unit µM understood.

Req: Please supply the value of reported 5% Toxicity microM for the item CN1CCN(c2ccc3nc(-c4ccc(OCc5cn(CCCCCCCCCCn6cc(CCCCc7cn(C[C@H]8OC(OC9C(O)[C@H](N)CC(N)[C@H]9O[C@H]9OC(CN)[C@@H](O)C(O)C9N)C(O)C8O[C@H]8OC(CN)[C@@H](O)C(O)C8N)nn7)nn6)nn5)cc4)[nH]c3c2)CC1 (stereo partly drawn)
Resp: 41

Req: Please supply the value of reported 5% Toxicity microM for the item CN1CCN(c2ccc3nc(-c4ccc(OCc5cn(CCCCCCn6cc(CCCCc7cn(C[C@H]8OC(OC9C(O)[C@H](N)CC(N)[C@H]9O[C@H]9OC(CN)[C@@H](O)C(O)C9N)C(O)C8OC8OC(CN)C(O)C(O)C8N)nn7)nn6)nn5)cc4)[nH]c3c2)CC1 (stereo partly drawn)
Resp: 11

----------
- STUDY_TARGET: HIV-1 TAR RNA
- ASSAY_COMMENT: HIV-1 TAR RNA competition FRET binding assay (Tat peptide probe)
- MEASUREMENT_CONDITIONS: 100 nM TAR RNA, 100 nM Tat peptide, 25° C., 60 min; Table 18
Hi there, I'd appreciate the recorded pIC50 for every entry that follows.
Scale: negative log10 of molar concentration, which is what pIC50 denotes.

Req: With HIV-1 TAR RNA as the test system, provide measured pIC50 for this compound: [H]/N=C(/N)N[C@H]1[C@H](O)[C@@H](O)[C@H](O[C@@H]2O[C@@H](C)[C@](O)(C=O)[C@H]2O[C@@H]2O[C@@H](CO)[C@H](O)[C@@H](O)[C@@H]2NC)[C@@H](N/C(N)=N\[H])[C@@H]1O [DPA 506, streptomycin, reference compound]
Resp: 4.76

Req: With HIV-1 TAR RNA as the test system, provide measured pIC50 for this compound: NC[C@H]1O[C@H](O[C@H]2[C@H](O)[C@@H](O[C@H]3O[C@H](CO)[C@@H](O)[C@H](N)[C@H]3O)[C@H](N)C[C@@H]2N)[C@H](O)[C@@H](O)[C@@H]1O [DPA 503, kanamycin, reference compound]
Resp: 4.02

Req: With HIV-1 TAR RNA as the test system, provide measured pIC50 for this compound: CN1CCN(c2ccc3nc(-c4ccc(OCc5cn(C[C@H]6OC(OC7C(O)[C@H](N)CC(N)[C@H]7O[C@H]7OC(CN)[C@@H](O)C(O)C7N)C(O)C6O[C@H]6OC(CN)[C@@H](O)C(O)C6N)nn5)cc4)[nH]c3c2)CC1 (some centres unmarked) [DPA123]
Resp: 6.81

Req: With HIV-1 TAR RNA as the test system, provide measured pIC50 for this compound: NC[C@@H]1O[C@H](O[C@H]2[C@@H](O)[C@H](O[C@@H]3[C@@H](O)[C@H](N)C[C@H](N)[C@H]3O[C@H]3O[C@H](CO)[C@@H](O)[C@H](O)[C@H]3N)O[C@@H]2CO)[C@H](N)[C@@H](O)[C@@H]1O [DPA 502, paromomycin, reference compound]
Resp: 4.94
